Target: IL-7Rα (Homo sapiens, UniProt P16871)
Construct: IL-7Rα (residues 37-231, Uniprot ID P16871); IgK signal peptide (N); made in house; host or cells: mammalian cells
Sequence (P16871 37-231): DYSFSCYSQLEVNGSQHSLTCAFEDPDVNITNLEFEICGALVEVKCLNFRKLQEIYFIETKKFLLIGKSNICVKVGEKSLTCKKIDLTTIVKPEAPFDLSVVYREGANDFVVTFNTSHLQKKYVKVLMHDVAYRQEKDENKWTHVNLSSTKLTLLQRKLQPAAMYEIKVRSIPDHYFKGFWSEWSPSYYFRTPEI
Assay: Biolayer interferometry binding to IL-7Rα
Conditions: target IL-7Rα; optimized sequence; read-out: Octet kD
Observation type: pKd
Scale note: pKd = -log10(concentration in M).

stdin: Give a short answer stating reported pKd for IL-7Rα_mb (SVIEKLRKLEKQARKQGDEVLVMLARMVLEYLEKGWVSEEDADESADRIEEVLKK) .
stdout: 9.51
